B1: FBXO3 (parent)
chain: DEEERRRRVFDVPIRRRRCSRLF

# Variants of: B1
# assay: protein stability index of a GFP-peptide fusion (GPS, HEK-293T) (PSI 1-6); higher = more stable;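 note: lentivirally expressed fusions sorted by FACS into six bins by GFP to DsRed ratio, PSI derived from sequencing read proportions per bin multiplied by bin number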
# runConditions: c terminus: native
Classification field: enter t for protein stability index values not below 3, f for values below it.

[in] Could you please find out whether `F23A` has protein stability index that meets 3 or exceeds it?
[out] f

[in] Could you please find out whether `F23Y` has protein stability index that meets 3 or exceeds it?
[out] t

[in] Could you please find out whether `V12H` has protein stability index that meets 3 or exceeds it?
[out] f

[in] Could you please find out whether `E2T` has protein stability index that meets 3 or exceeds it?
[out] f

[in] Could you please find out whether `D1I` has protein stability index that meets 3 or exceeds it?
[out] f

[in] Could you please find out whether `R5G` has protein stability index that meets 3 or exceeds it?
[out] t

[in] Could you please find out whether `R21C` has protein stability index that meets 3 or exceeds it?
[out] t

[in] Could you please find out whether `R17N` has protein stability index that meets 3 or exceeds it?
[out] f

[in] Could you please find out whether `R16A` has protein stability index that meets 3 or exceeds it?
[out] f

[in] Could you please find out whether `V12S` has protein stability index that meets 3 or exceeds it?
[out] t

[in] Could you please find out whether `R16V` has protein stability index that meets 3 or exceeds it?
[out] f

[in] Could you please find out whether `F10Y` has protein stability index that meets 3 or exceeds it?
[out] t

[in] Could you please find out whether `E2L` has protein stability index that meets 3 or exceeds it?
[out] f

[in] Could you please find out whether `L22A` has protein stability index that meets 3 or exceeds it?
[out] t

[in] Could you please find out whether `R7S` has protein stability index that meets 3 or exceeds it?
[out] t

[in] Could you please find out whether `D11P` has protein stability index that meets 3 or exceeds it?
[out] t

[in] Could you please find out whether `R17K` has protein stability index that meets 3 or exceeds it?
[out] t

[in] Could you please find out whether `R18N` has protein stability index that meets 3 or exceeds it?
[out] f

[in] Could you please find out whether `R16S` has protein stability index that meets 3 or exceeds it?
[out] f

[in] Could you please find out whether `R18H` has protein stability index that meets 3 or exceeds it?
[out] f

[in] Could you please find out whether `R15Q` has protein stability index that meets 3 or exceeds it?
[out] f

// provenance: the supplement of paper PMC10567573
